Biological target: Insulin receptor-related protein (Homo sapiens) (UniProt P14616);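 note: mean percent inhibition of IRR, reported within the GSK PKIS screening panel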
Sequence (P14616 27-742 limits assumed): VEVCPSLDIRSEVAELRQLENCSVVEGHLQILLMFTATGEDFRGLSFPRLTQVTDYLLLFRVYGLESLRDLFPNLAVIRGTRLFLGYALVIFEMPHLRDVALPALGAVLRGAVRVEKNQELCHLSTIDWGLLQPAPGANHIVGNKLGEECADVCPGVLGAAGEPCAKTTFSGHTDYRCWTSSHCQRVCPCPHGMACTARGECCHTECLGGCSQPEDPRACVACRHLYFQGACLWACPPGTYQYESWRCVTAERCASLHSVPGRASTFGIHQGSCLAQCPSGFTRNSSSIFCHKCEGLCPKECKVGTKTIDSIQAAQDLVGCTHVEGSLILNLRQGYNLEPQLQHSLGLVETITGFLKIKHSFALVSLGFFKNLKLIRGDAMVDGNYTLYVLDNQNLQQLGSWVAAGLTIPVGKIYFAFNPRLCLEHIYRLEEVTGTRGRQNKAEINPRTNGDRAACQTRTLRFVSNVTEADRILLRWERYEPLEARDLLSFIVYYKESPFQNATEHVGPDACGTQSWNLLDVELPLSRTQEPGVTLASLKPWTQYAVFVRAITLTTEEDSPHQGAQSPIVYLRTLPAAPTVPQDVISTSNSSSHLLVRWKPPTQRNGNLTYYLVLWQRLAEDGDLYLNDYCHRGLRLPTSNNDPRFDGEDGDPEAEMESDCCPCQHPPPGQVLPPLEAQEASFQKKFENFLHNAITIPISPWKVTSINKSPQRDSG
Sequence (P14616 747-1297 limits assumed): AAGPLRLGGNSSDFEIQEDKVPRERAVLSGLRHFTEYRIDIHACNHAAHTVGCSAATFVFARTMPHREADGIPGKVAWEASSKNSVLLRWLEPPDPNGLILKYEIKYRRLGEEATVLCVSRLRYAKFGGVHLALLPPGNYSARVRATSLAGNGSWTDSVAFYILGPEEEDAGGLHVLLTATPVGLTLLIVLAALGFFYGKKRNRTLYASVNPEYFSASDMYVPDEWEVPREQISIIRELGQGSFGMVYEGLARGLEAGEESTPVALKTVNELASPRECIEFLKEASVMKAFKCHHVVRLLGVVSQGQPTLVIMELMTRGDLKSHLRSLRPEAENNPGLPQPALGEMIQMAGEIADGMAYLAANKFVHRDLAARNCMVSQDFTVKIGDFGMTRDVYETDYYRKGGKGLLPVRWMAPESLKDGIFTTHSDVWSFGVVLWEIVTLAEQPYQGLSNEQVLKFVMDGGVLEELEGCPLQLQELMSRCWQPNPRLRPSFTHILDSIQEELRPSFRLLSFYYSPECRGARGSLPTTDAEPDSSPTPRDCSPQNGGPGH
Conditions: at 0.1 µM
Measured inhibition, listed per entry for reference.
READOUT NAME: inhibition

>>> df
                               smiles_input  obs_value
0  O=C(Nc1n[nH]c2cc(-c3ccc(F)cc3)ccc12)C1CC1      1.75%
1  CS(=O)(=O)CCNCc1coc(-c2ccc3ncnc(Nc4ccc(OCc5ccccc5)cc4)c3c2)c1     -0.04%
2  COc1cc(Nc2nccc(Nc3ccc4c(C)n[nH]c4c3)n2)cc(OC)c1OC      1.88%
3  Cc1cccc2c1NC(=O)/C2=N\Nc1ccc(S(N)(=O)=O)cc1      6.42%
4  CCN(CC)S(=O)(=O)c1ccc(OC)c(Nc2ncc(-c3ccccc3)o2)c1      0.57%
5        Fc1ccc(-c2nn3ccccc3c2-c2ccncc2)cc1     -0.72%
6  CCn1cc(-c2ccnc3[nH]ccc23)c(-c2cccc(NC(=O)Nc3ccc(OCc4ccccc4)cc3)c2)n1     -1.45%
7  COc1ccc(CNC(=O)c2ccc(-c3cc(-c4nnc(C)o4)ccc3C)cc2)cc1      0.27%
8   NS(=O)(=O)c1ccc(Nc2ncc(-c3ccccc3)o2)cc1      3.04%
9  COc1cccc(-c2c[nH]c3c(N/N=C/c4ccncc4)ncnc23)c1      3.25%

----------
Target: Tyrosine-protein kinase TXK (Homo sapiens);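 note: each listed value is a mean percent inhibition of TXK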
Settings: at 0.1 µM
Measured inhibition, listed per entry for reference.
READOUT NAME: inhibition (%)

>>> print(df.to_string())
                               smiles_input                        measurement_target  unit_of_measure  obs_value
0       COc1cc(/C=N/Nc2ncnc3[nH]ncc23)ccc1O  Tyrosine-protein kinase TXK (Homo sapiens)                %        5.2
1  COC(=O)Nc1nc2ccc(Oc3ccc(NC(=O)Nc4cccc(Cl)c4)cc3)cc2[nH]1  Tyrosine-protein kinase TXK (Homo sapiens)                %       0.76
2  CCCN(CCS(C)(=O)=O)Cc1ccc(-c2ccc3ncnc(Nc4ccc(OCc5cccc(F)c5)c(Cl)c4)c3c2)o1  Tyrosine-protein kinase TXK (Homo sapiens)                %       2.27

----------
Biological target: Vascular endothelial growth factor receptor 3 (Homo sapiens);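 note: mean FLT4 inhibition, averaged across replicates, from the GSK PKIS kinase inhibitor screen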
Details: at 1 µM
READOUT NAME: inhibition

                                smiles_input  obs_value
 0  CC(C)COC(=O)c1ccc2c(c1)/C(=C/Nc1ccc(S(N)(=O)=O)cc1)C(=O)N2      80.6%
 1  CNC(=O)c1cccc(C#Cc2cncnc2Nc2ccc(OCc3cccc(F)c3)c(Cl)c2)c1       3.4%
 2             COc1ccc(-c2cc3c(N)ncnc3o2)cc1      4.44%
 3  COc1ccc(-c2cc(-c3c[nH]nc3-c3ccccn3)ccn2)cc1      4.26%
 4  COc1ccc(-c2oc3ncnc(N)c3c2-c2ccc(NC(=O)Nc3cc(C(F)(F)F)ccc3F)cc2)cc1      98.4%
 5   NS(=O)(=O)c1ccc(Nc2ncc(-c3ccccc3)o2)cc1       9.2%
 6  Fc1ccc(-c2nn3ncccc3c2-c2ccnc(Nc3ccc4c(c3)OCCO4)n2)cc1      47.7%
 7  Fc1cccc(COc2ccc(Nc3ncnc4sc(-c5ccco5)cc34)cc2Cl)c1      3.49%
 8  COc1cccc(-n2ncc3c(N/N=C/c4ccc(F)cc4)ncnc32)c1      6.84%
 9  CCN1CCC(CC(=O)Nc2n[nH]c3nnc(-c4cccc(F)c4F)cc23)CC1      1.82%
10  Nc1nc(-c2cccc(Cl)c2)c(-c2ccc3ncccc3n2)s1      9.77%
11  CN(C)CCOc1ccc(-c2nc(-c3ccncc3)c(-c3ccc4c(c3)CC/C4=N\O)[nH]2)cc1      3.47%
12  c1ccc(COc2ccc(Nc3ncnc4ccc(-c5ccco5)cc34)cc2)cc1      0.93%
13  CS(=O)(=O)CCNCc1coc(-c2ccc3ncnc(Nc4ccc(OCc5ccccc5)cc4)c3c2)c1      2.92%
14  NC(=O)c1sc(-n2cnc3ccc(C(F)(F)F)cc32)cc1OCc1ccccc1Br      3.99%
15        Fc1ccc(-c2nn3ccccc3c2-c2ccncc2)cc1      1.83%
16  CC(=O)NCc1cccc(C#Cc2cncnc2Nc2ccc(OCc3cccc(F)c3)c(Cl)c2)c1       3.6%
17  c1ccc(-c2nc3n(c2-c2ccc4c(c2)OCO4)CCC3)nc1      15.8%
18       COc1cc(/C=N/Nc2ncnc3[nH]ncc23)ccc1O      26.1%
19  c1cc(-c2cnn3nc(N4CCOCC4)ccc23)nc(NC2CC2)n1      29.9%
20  COC(=O)c1sc(-n2cnc3cc(OC)c(OC)cc32)cc1OCc1ccccc1C(F)(F)F      50.2%
21  O=C(O[C@H]1CN[C@H](C#Cc2cc3ncnc(Nc4ccc(Cc5ccccc5)cc4)c3s2)C1)N1CCOCC1      4.62%
